assay-system: T1, ectodomain of human plgR (R&D Systems Cat # 2717-PG) (human, UniProt P01833 19-638)
T1 construct: extracellular domain; Immobilized at 5 ug/ml on Maxisorp plates; also called plgR ectodomain; pIgR
T1 sequence (P01833 19-638): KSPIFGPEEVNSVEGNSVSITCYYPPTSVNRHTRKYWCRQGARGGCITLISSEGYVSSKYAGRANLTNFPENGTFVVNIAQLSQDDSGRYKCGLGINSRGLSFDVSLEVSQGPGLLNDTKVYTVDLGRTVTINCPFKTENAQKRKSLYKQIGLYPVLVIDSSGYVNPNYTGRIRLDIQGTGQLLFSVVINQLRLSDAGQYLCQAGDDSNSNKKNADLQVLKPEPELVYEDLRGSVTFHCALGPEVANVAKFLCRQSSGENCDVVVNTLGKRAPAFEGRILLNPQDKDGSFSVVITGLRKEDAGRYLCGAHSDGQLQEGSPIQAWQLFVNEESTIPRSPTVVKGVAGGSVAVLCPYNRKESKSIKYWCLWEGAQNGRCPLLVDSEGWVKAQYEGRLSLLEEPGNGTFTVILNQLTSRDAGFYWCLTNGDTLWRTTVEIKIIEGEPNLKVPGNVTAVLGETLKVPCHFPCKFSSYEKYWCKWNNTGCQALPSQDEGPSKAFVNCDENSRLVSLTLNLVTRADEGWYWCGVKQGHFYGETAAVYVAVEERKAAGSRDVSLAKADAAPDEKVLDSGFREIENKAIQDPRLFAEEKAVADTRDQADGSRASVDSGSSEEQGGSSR
test-name: competition ELISA, dilution series of purified Nanobody against IgA on immobilized plgR ectodomain
quantity: binding result

binder: 1D7 (VHH) VHH: EVQLVESGGGLVQSGGSLRLSCAASGRAFNYYAMGWFRQAPGKERELVAVINWSGGTTSYADSVKGRFTISRSNAKNTVYLQMSSLKPEDTAVYYCAADSIYRTSKDYNYWGQGTQVTVSS
result: binds
//
binder: 1D2 (VHH) VHH: EVQLVESGGGLVQPGGSLRLSCAASGFTLDYYAIGWFRRAPGKEREGVSCTSSSDGSTYYADSVKGRFTISRDNAKNTVYLQMNSLKPEDTAVYYCATTFGDACTVVAGIPDQYDFGSWGQGTQVTVSS
result: binds
//
binder: 4D9 (VHH, Purified Nanobody) VHH: EVQLVESGGGLVQPGGSLRLSCAASGFTLDYYDIGWFRQAPGKEREGVSCTSSSDGSTYYADSVKGRFTISRDNAKNTVYLQMNSLKPEDTAVYYCATTFGDACTVVAGIPDQYDFGSWGQGTQVTVSS
result: binds
//
binder: 1E7 (VHH) VHH: EVQLVESGGGLVQAGGSLRLSCAASGRTFSNYVMGWFRQAPGKEREFVAAISWSGVTTYHYSADSVKGRFTTSRDNDRNTAHLQMNSLKPEDTAVYYCAARGRTGSDPRKGDDYDYWGQGTQVTVSS
result: binds

Cited source: patent WO2008074868A1
